Taken from patent US20130039916A1.

- Target desc: T1, "Non-linked" human IL-23 (human p40 coexpressed in 293T cells with human p19:FLAG-tag peptide) (human, UniProt P29460 23-328)
- T1 sequence 1: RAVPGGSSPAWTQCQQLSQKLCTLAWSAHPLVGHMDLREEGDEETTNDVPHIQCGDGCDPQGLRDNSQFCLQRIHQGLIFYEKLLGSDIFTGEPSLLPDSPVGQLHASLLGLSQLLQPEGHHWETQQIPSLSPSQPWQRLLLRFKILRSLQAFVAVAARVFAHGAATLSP
- T1 sequence 2: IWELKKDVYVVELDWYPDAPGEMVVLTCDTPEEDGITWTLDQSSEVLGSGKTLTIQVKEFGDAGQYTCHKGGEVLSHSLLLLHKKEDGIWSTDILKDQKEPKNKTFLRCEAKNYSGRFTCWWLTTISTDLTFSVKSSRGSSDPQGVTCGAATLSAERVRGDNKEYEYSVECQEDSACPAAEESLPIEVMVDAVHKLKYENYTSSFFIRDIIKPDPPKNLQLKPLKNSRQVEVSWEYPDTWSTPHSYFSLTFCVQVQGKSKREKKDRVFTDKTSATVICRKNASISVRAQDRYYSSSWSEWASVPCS
- Experiment description: cell-based or functional assay
Readout: IC50 (pM), blocking of Ba/F3 cell proliferation

>  <Binder>
mouse anti-human IL-23p19 antibody 39G2 (antibody, V domains shown, also called m39G2) VH: QVQLQQPGAELVRPGASVKLSCKASGYSFTSSWMNWVKQRPGQGLEWIGMIHPSDSETRTNQKFKDKATLTVDKSSSTAYMQLSSPTSEDSAVYYCARGMITAPTVYWGQGTLVTVSA VL: DIVLTQSPASLAVSLGQRATISCRASKSVSTSAYSYFHWYQQKPGQPPKLLIYLASNLESGVPARFSGSGSGTDFTLNIHPVEEEDAATYYCQHSRELPWTFGGGTKLEITP

>  <Number>
67

$$$$
>  <Binder>
mouse anti-human IL-23p19 antibody 18E1 (antibody, V domains shown) VH: EVQLQQSGPELVKPGASVKMSCKASGNTFTRYVMNWVKQKPGQGLEWIGYINPYNDGTNYNEKFKGKATLTSDKSSTTAYMELSSLTSEDSAVYYCVHNWDLDYWGQGTTLTVSS VL: DIVMTQSPATLSVTPGDRVSLSCRASQSISHYLYWYQQKSHESPRLLIKYASQSISGIPSRFSGSGSGSDFTLSINSVEPEDVGMYYCQNGHSFPYTFGGGTKLEIKR

>  <Number>
48

$$$$
>  <Binder>
mouse anti-human IL-23p19 antibody 7G10 (antibody, V domains shown) VH: EVQLQQSGPELVKPGASVKMSCKASGYTFTSNVMHWVKQKPGQGLEWIGYINPYNDGTKYNEKFKGKATLTSDKSSSTAYMELSSLTSEDSAVYYCARNWDVAYWGQGTLVTVSA VL: DIVMTQSPATLSVTPGDRVSLSCRASQSISDYLHWYRQKSHESPRLLIKYASQSISGIPSRFSGSGSGSDFTLSINSVEPEDVGVYYCQNGHSFPFTFGSGTKLEIKR

>  <Number>
3000

$$$$
